testTarget: T1, anchored ILT2 D2 domain protein (human)
T1 construct: on CHO cells; the entry includes leader remnant, V5 tag and CD24 GPI anchor signal
T1 sequence (chain, as listed by the source limits assumed): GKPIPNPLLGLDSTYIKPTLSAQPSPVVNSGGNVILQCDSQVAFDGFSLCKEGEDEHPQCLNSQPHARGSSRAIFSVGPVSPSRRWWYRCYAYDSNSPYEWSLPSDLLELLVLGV
assaySummary: flow cytometry, CHO cells with anchored ILT2 domain proteins

- binder: "27H5 (antibody, human IgG1, V domains shown) VH: QVQLKESGPGLVAPSQSLSITCTVSGFSLTSYGVSWVRQPPGKGLEWLGVIWGDGNTNYHSALISRLSISKDNSKSQVFLKLNSLQTDDTATYYCARTNWDGWFAYWGQGTLVTVSA VL: DIVMTQSHKFMSTSVGDRVSITCKASQDVGTAVAWYQQKPGQSPKLLIYWASTRHTGVPDRFTGSGSGTDFTLTISNVQSEDLADYFCQQYRSYPLGTFGGGTKLEIK"
  binding result: "no binding"
- binder: "12D12 (antibody, human IgG1, V domains shown) VH: QVQLQQPGAELVKPGASVRMSCKASGYTFTSYWVHWVKQRPGQGLEWIGVIDPSDSYTSYNQNFKGKATLTVDTSSKTAYIHLSSLTSEDSAVYFCARGERYDGDYFAMDYWGQGTSVTVSS VL: DIVMTQSPASLSVSVGETVTITCRASENIYSNLAWYQQKQGKSPQLLVYAATNLADGVPSRFSGSRSGTQYSLKINSLQSEDFGTYYCQHFWNTPRTFGGGTKLEIK"
  binding result: "no binding"
